Consider the following compounds and their measured Preemergence herbicidal rating GALAP readings.
Test system: GALAP (Galium)
Experiment: Preemergence herbicidal evaluation
Assay type: in vivo, Galium aparine
Details: rate 0.0625 kg/ha; rated 4-5 weeks after treatment; rating scale 0-9
Just the number, please, no unit attached.

>  <Compound>
C=C1SC(=Nc2cc(-n3c(=O)cc(C(F)(F)F)n(C)c3=O)c(F)cc2Cl)N(CC(=O)OCC)C1=O

>  <Measurement Target>
GALAP (Galium)

>  <Preemergence herbicidal rating GALAP>
4.0

$$$$

-- ask Field request: Preemergence herbicidal rating GALAP | item: CCOC(=O)CN1C(=O)C(COC)SC1=Nc1cc(-n2c(=O)cc(C(F)(F)F)n(C)c2=O)c(F)cc1Cl (stereo not drawn)
-- reply 4.0

====

Readings of Herbicidal rating CYPIR for the listed compounds
System: CYPIR (Rice Flatsedge)
Assay: Postemergence weed control under flooded paddy conditions
Assay type: in vivo, Cyperus iria
Conditions: Rate 0.0313 kg/ha, postemergence weeds, rated 3 to 4 weeks after treatment
// no unit, no text: just the number

The following compounds have reported results that may help.
>  <Compound>
CN1C(=O)C(CC(=O)Nc2ccccc2)SC1=Nc1cc(-n2c(=O)cc(C(F)(F)F)n(C)c2=O)c(F)cc1Cl (stereo not shown)

>  <Herbicidal rating CYPIR>
0.0

$$$$
>  <Compound>
C#CCOC(=O)CC1SC(=Nc2cc(-n3c(=O)cc(C(F)(F)F)n(C)c3=O)c(F)cc2Cl)N(C)C1=O (stereo not shown)

>  <Herbicidal rating CYPIR>
0.0

$$$$
>  <Compound>
C=CCN1C(=O)C(CC(=O)OC)SC1=Nc1cc(-n2c(=O)cc(C(F)(F)F)n(C)c2=O)c(F)cc1Cl (stereo not shown)

>  <Herbicidal rating CYPIR>
0.0

$$$$
>  <Compound>
C=CCOC(=O)CC1SC(=Nc2cc(-n3c(=O)cc(C(F)(F)F)n(C)c3=O)c(F)cc2Cl)N(CC=C)C1=O (stereo not shown)

>  <Herbicidal rating CYPIR>
6.0

$$$$

-- ask Form field: reported Herbicidal rating CYPIR of CCOC(=O)CN1C(=O)C(CC(=O)NO)S/C1=N/c1cc(-n2c(=O)cc(C(F)(F)F)n(C)c2=O)c(F)cc1Cl (stereo not shown)
-- reply 9.0

-- ask Request the reported Herbicidal rating CYPIR associated with COC(=O)C(Cc1ccc(Cl)cc1)N1C(=O)CSC1=Nc1cc(-n2c(=O)cc(C(F)(F)F)n(C)c2=O)c(F)cc1Cl (racemic)
-- reply 0.0

-- ask Fill blank: measured Herbicidal rating CYPIR of the compound C[C@@H](C(=O)OC(C)(C)C)N1C(=O)CSC1=Nc1cc(-n2c(=O)cc(C(F)(F)F)n(C)c2=O)c(F)cc1Cl is ____.
-- reply 0.0

====

Tested on: GALAP (Galium)
Experiment: Postemergence herbicidal evaluation
Type: in vivo, Galium aparine
Conditions: postemergence, rate 0.0313 kg/ha
The threshold is 2. Values of Herbicidal rating GALAP beneath it are tagged Met; values meeting or exceeding it are tagged Not met.

Here are 2 compounds together with their reported answers.
>  <Compound>
Cn1c(C(F)(F)F)cc(=O)n(-c2cc(N=C3SCC(=O)N3Cc3ccccn3)c(Cl)cc2F)c1=O

>  <Category Label>
Not met

$$$$
>  <Compound>
C=C1SC(=Nc2cc(-n3c(=O)cc(C(F)(F)F)n(C)c3=O)c(F)cc2Cl)N(CC(=O)OCC)C1=O

>  <Category Label>
Not met

$$$$

-- ask # strict comparison: is reported Herbicidal rating GALAP < 2? input = CC(C)COC(=O)CN1C(=O)CSC1=Nc1cc(-n2c(=O)cc(C(F)(F)F)n(C)c2=O)c(F)cc1Cl
-- reply Met

-- ask Could you please tell me whether Herbicidal rating GALAP recorded for Cn1c(C(F)(F)F)cc(=O)n(-c2cc(N=C3SCC(=O)N3Cc3ccc(F)cc3)c(Cl)cc2F)c1=O is less than 2?
-- reply Not met

-- ask Threshold test, Herbicidal rating GALAP < 2: C=CCN1C(=O)C(CC(=O)NS(=O)(=O)c2ccccc2)SC1=Nc1cc(-n2c(=O)cc(C(F)(F)F)n(C)c2=O)c(F)cc1Cl (stereo not drawn)
-- reply Met

-- ask Regarding CCOC(=O)CN1C(=O)C(C(=O)OC)SC1=Nc1cc(-n2c(=O)cc(C(F)(F)F)n(C)c2=O)c(F)cc1Cl (stereo not drawn) , kindly confirm whether its Herbicidal rating GALAP is beneath 2.
-- reply Met

-- ask hey, is Herbicidal rating GALAP for CC(C)N1C(=O)CSC1=Nc1cc(-n2c(=O)cc(C(F)(F)F)n(C)c2=O)c(F)cc1Cl lower than 2 or not?
-- reply Not met

====

Test system: CHEAL (Lambsquarters, Common)
Assay: Preemergence herbicidal evaluation
Type: in vivo, Chenopodium album
Conditions: rate 0.0625 kg/ha; rated 4-5 weeks after treatment
Recorded Preemergence herbicidal rating CHEAL values for a group of molecules are listed next.
In your answer, state the number alone without any accompanying words.

Some solved cases for reference:
>  <Molecule>
COC(=O)CCCN1C(=O)CSC1=Nc1cc(-n2c(=O)cc(C(F)(F)F)n(C)c2=O)c(F)cc1Cl

>  <Preemergence herbicidal rating CHEAL>
0.0

$$$$
>  <Molecule>
CCOC(=O)CN1C(=O)C(CCO)S/C1=N/c1cc(-n2c(=O)cc(C(F)(F)F)n(C)c2=O)c(F)cc1Cl (centres unmarked)

>  <Preemergence herbicidal rating CHEAL>
9.0

$$$$
>  <Molecule>
CC(C)C[C@@H](C(=O)O)N1C(=O)CSC1=Nc1cc(-n2c(=O)cc(C(F)(F)F)n(C)c2=O)c(F)cc1Cl

>  <Preemergence herbicidal rating CHEAL>
9.0

$$$$
>  <Molecule>
Cn1c(C(F)(F)F)cc(=O)n(-c2cc(N=C3SCC(=O)N3Cc3ccccc3)c(Cl)cc2F)c1=O

>  <Preemergence herbicidal rating CHEAL>
9.0

$$$$
>  <Molecule>
CCOC(=O)CN1C(=O)C(Cc2ccccc2OCC(=O)O)S/C1=N/c1cc(-n2c(=O)cc(C(F)(F)F)n(C)c2=O)c(F)cc1Cl (centres unmarked)

>  <Preemergence herbicidal rating CHEAL>
0.0

$$$$

-- ask Lab request: please report Preemergence herbicidal rating CHEAL under test system CHEAL (Lambsquarters, Common) for C=CCN1C(=O)C(CC(=O)OC)SC1=Nc1cc(-n2c(=O)cc(C(F)(F)F)n(C)c2=O)c(F)cc1Cl (centres unmarked)
-- reply 9.0

-- ask Record lookup: for CHEAL (Lambsquarters, Common), what Preemergence herbicidal rating CHEAL belongs to CC(C)OC(=O)CN1C(=O)CSC1=Nc1cc(-n2c(=O)cc(C(F)(F)F)n(C)c2=O)c(F)cc1Cl ?
-- reply 9.0

-- ask What value of Preemergence herbicidal rating CHEAL on CHEAL (Lambsquarters, Common) does CC(C)COC(=O)CN1C(=O)CSC1=Nc1cc(-n2c(=O)cc(C(F)(F)F)n(C)c2=O)c(F)cc1Cl have?
-- reply 9.0

====

Tested on: ORYSAT (Rice, Tebonnet)
Experiment: Preemergence herbicidal evaluation
Type: in vivo, Oryza sativa, (L.) Tebonnet
Conditions: rate 0.0625 kg/ha; rated 4-5 weeks after treatment
Reported Preemergence herbicidal rating ORYSAT values are given for each entry in this list.
Lab note: record just the number, no unit beside it.

Field: example entries. Status: answers known.
>  <Compound>
Cn1c(C(F)(F)F)cc(=O)n(-c2cc(N=C3SCC(=O)N3CC(=O)OC(C)(C)C)c(Cl)cc2F)c1=O

>  <Readout Label>
Preemergence herbicidal rating ORYSAT

>  <Observed>
0.0

$$$$
>  <Compound>
CC(C)C[C@@H](C(=O)O)N1C(=O)CSC1=Nc1cc(-n2c(=O)cc(C(F)(F)F)n(C)c2=O)c(F)cc1Cl

>  <Readout Label>
Preemergence herbicidal rating ORYSAT

>  <Observed>
0.0

$$$$

-- ask Look up Preemergence herbicidal rating ORYSAT for this compound: C#CCOC(=O)CN1C(=O)CSC1=Nc1cc(-n2c(=O)cc(C(F)(F)F)n(C)c2=O)c(F)cc1Cl
-- reply 0.0

-- ask Requested read-out: Preemergence herbicidal rating ORYSAT. Entry: C=CCN1C(=O)C(CC(=O)OC)SC1=Nc1cc(-n2c(=O)cc(C(F)(F)F)n(C)c2=O)c(F)cc1Cl (stereo not shown)
-- reply 1.0

-- ask What does the record list as Preemergence herbicidal rating ORYSAT for COC(=O)C(Cc1ccc(Cl)cc1)N1C(=O)CSC1=Nc1cc(-n2c(=O)cc(C(F)(F)F)n(C)c2=O)c(F)cc1Cl (racemic) ?
-- reply 0.0

-- ask Report Preemergence herbicidal rating ORYSAT for C#CCOC(=O)CC1SC(=Nc2cc(-n3c(=O)cc(C(F)(F)F)n(C)c3=O)c(F)cc2Cl)N(CC=C)C1=O (stereo not shown) please.
-- reply 0.0

-- ask Preemergence herbicidal rating ORYSAT for CC(C)S(=O)(=O)NC(=O)CC1SC(=Nc2cc(-n3c(=O)cc(C(F)(F)F)n(C)c3=O)c(F)cc2Cl)N(C)C1=O (stereo not shown) ?
-- reply 0.0

-- ask State the recorded Preemergence herbicidal rating ORYSAT for this entry: COC(=O)CCCN1C(=O)CSC1=Nc1cc(-n2c(=O)cc(C(F)(F)F)n(C)c2=O)c(F)cc1Cl
-- reply 0.0

-- ask Need Preemergence herbicidal rating ORYSAT, item COC(=O)C(C)OC(=O)CN1C(=O)CSC1=Nc1cc(-n2c(=O)cc(C(F)(F)F)n(C)c2=O)c(F)cc1Cl (stereo not shown)
-- reply 0.0

-- ask Form field: reported Preemergence herbicidal rating ORYSAT of CC(C)OC(=O)CN1C(=O)CSC1=Nc1cc(-n2c(=O)cc(C(F)(F)F)n(C)c2=O)c(F)cc1Cl
-- reply 0.5

Reference source: patent US20020137929A1
